Taken from patent US4966962A.

- System: colon 38 adenocarcinoma
- Experiment Description: Activity against advanced colon carcinoma C38 tumor
- Type: in vivo, CDF1 mice
- Run Conditions: dose 0.30 mg/kg iv days 1, 5, 9; tumors measured day 21
*1 amine or outer side, *2 acyl side, *3 side chain or, on linkers, in order; H or OH if unused. Where a SMILES comes first, the peptide text is derived from it. Bridges are numbered along the chain shown (N, C = ends). Roman numbers before positions name the chains, in order. [ ]: non-standard residue; d: D form. Actinocin(9to1) = Cc1c2oc3c(C)ccc(C(=O)[*:1])c3nc-2c(C(=O)[*:2])c(N)c1=O; NMeV = CN[C@H](C(=O)O)C(C)C; Sar = CNCC(=O)O
Measurement Kind: % inhibn of tumor (%)
One number for each entry, in %.

Reference set, count: 3
Cc1c2oc3c(C)ccc(C(=O)N[C@@H]4C(=O)N[C@H](C(C)C)C(=O)N5CCC[C@H]5C(=O)N(C)CC(=O)N(C)[C@@H](C(C)C)C(=O)O[C@@H]4C)c3nc-2c(C(=O)N[C@@H]2C(=O)N[C@H](C(C)C)C(=O)N3CCC[C@H]3C(=O)N(C)CC(=O)N(C)[C@@H](C(C)C)C(=O)O[C@@H]2C)c(N)c1=O [AMD (1), Actinomycin D] (I: T[dV]P[Sar][NMeV] / II: T[dV]P[Sar][NMeV]; ester I:1-I:C, II:1-II:C; linker I:N-II:N via Actinocin(9to1)); 67
Cc1c2oc3c(C)c4oc(CC(=O)NCCCCN)nc4c(C(=O)N[C@@H]4C(=O)N[C@H](C(C)C)C(=O)N5CCC[C@H]5C(=O)N(C)CC(=O)N(C)[C@@H](C(C)C)C(=O)O[C@@H]4C)c3nc-2c(C(=O)N[C@@H]2C(=O)N[C@H](C(C)C)C(=O)N3CCC[C@H]3C(=O)N(C)CC(=O)N(C)[C@@H](C(C)C)C(=O)O[C@@H]2C)c(N)c1=O; 80
Cc1c2oc3c(C)c4oc(-c5ccccc5)nc4c(C(=O)N[C@@H]4C(=O)N[C@H](C(C)C)C(=O)N5CCC[C@H]5C(=O)N(C)CC(=O)N(C)[C@@H](C(C)C)C(=O)O[C@@H]4C)c3nc-2c(C(=O)N[C@@H]2C(=O)N[C@H](C(C)C)C(=O)N3CCC[C@H]3C(=O)N(C)CC(=O)N(C)[C@@H](C(C)C)C(=O)O[C@@H]2C)c(N)c1=O; 70

Q: Return the recorded % inhibn of tumor value; entry: Cc1c2oc3c(C)c(O)c(N)c(C(=O)N[C@@H]4C(=O)N[C@H](C(C)C)C(=O)N5CCC[C@H]5C(=O)N(C)CC(=O)N(C)[C@@H](C(C)C)C(=O)O[C@@H]4C)c3nc-2c(C(=O)N[C@@H]2C(=O)N[C@H](C(C)C)C(=O)N3CCC[C@H]3C(=O)N(C)CC(=O)N(C)[C@@H](C(C)C)C(=O)O[C@@H]2C)c(N)c1=O
A: 95
